# Target Under Test: LdGSK-3 (Leishmania donovani)
# Sequence (A6N857 entry or part of it): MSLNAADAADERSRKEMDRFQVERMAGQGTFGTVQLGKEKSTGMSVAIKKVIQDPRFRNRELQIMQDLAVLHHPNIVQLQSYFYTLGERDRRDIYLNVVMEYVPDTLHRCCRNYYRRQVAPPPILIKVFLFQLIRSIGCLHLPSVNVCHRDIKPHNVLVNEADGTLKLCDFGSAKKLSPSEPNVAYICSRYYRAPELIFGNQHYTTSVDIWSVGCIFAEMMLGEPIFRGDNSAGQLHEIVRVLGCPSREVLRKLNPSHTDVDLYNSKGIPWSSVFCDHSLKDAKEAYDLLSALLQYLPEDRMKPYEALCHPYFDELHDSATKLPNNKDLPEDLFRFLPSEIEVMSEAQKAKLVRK
# Test Summary: Inhibition of LdGSK-3 with Kinase Glo
# Format: biochemical
# Cond: Table S2; 10 µM
Provide the reported % inhibition @ 10µM (initial screening on LdGSK3) of each item.
Quick reminder: number only, in %, skip the unit.

Q: Fill blank: measured % inhibition @ 10µM (initial screening on LdGSK3) of the compound Cc1cc(C)n(-c2nc(NC(C)(C)C)nc(N3CCOCC3)n2)n1 is ____.
A: -2.80

Q: Fill blank: measured % inhibition @ 10µM (initial screening on LdGSK3) of the compound Cc1nn(-c2ccccc2)nc1CNC(=O)CN(Cc1ccccn1)Cc1ccccn1.O=C(O)C(F)(F)F is ____.
A: 9.10

Q: Fill blank: measured % inhibition @ 10µM (initial screening on LdGSK3) of the compound CN(Cc1nc2ccc(C(=O)NCC3CCCCC3)cc2[nH]1)C1CCCc2cccnc21.O=C(O)C(F)(F)F (centres unmarked) is ____.
A: 1.15

Q: Fill blank: measured % inhibition @ 10µM (initial screening on LdGSK3) of the compound O=C(Nc1nc2ccccc2[nH]1)c1c(O)c2cccc3c2n(c1=O)CC3 is ____.
A: 7.50

Q: Fill blank: measured % inhibition @ 10µM (initial screening on LdGSK3) of the compound COc1ccc(NS(=O)(=O)c2ccc(S(=O)(=O)N(C)C3CCCCC3)cc2)c2ncccc12 is ____.
A: 6.85

Q: Fill blank: measured % inhibition @ 10µM (initial screening on LdGSK3) of the compound CNc1nc(C)nc(N2CCc3cc(C(=O)NCc4ccc(-c5ccn[nH]5)cc4Cl)ccc32)n1.O=C(O)C(F)(F)F is ____.
A: -13.55

Q: Fill blank: measured % inhibition @ 10µM (initial screening on LdGSK3) of the compound COCc1cc(Nc2cccc(Cl)c2)nc(-c2ccccn2)n1 is ____.
A: 9.00

Q: Fill blank: measured % inhibition @ 10µM (initial screening on LdGSK3) of the compound COc1ccc(C(=O)[C@H]2C[C@@H]2CN(Cc2ccccn2)Cc2ccccn2)cc1 is ____.
A: -4.05

----------
# Target Under Test: LdGSK-3 (Leishmania donovani)
# Test Summary: Inhibition of LdGSK-3 with Kinase Glo
# Assay type: biochemical
# Cond: assayed at 10 µM
Measurement Type: percentage of inhibition of LdGSK-3

>>> measured("Cc1ccc(S(C)(=O)=O)cc1Nc1nccc(-c2sc(N)nc2-c2ccccc2)n1")
"higher than 50%"
>>> measured("COc1ccc(Nc2nccc(N(C)c3n[nH]c4c(F)cccc34)n2)cc1S(C)(=O)=O")
"higher than 50%"
>>> measured("O=S(=O)(c1cccc(CSc2nnc(-c3ccc4c(c3)OCO4)o2)c1)N1CCOCC1")
"higher than 50%"
>>> measured("CN(C)Cc1cccc(Nc2nccc(-c3ccc(NCCN)c(C#N)c3)n2)c1")
"higher than 50%"
>>> measured("CC(=O)Nc1ccc(-c2cnc(N)c(-c3nc4ccc(F)cc4[nH]3)c2)cc1")
"higher than 50%"
>>> measured("Cc1ccc(-c2csc(NC(=O)C=Cc3ccc(S(=O)(=O)N4CCOCC4)cc3)n2)o1")
"higher than 50%"
>>> measured("CN(C)S(=O)(=O)c1ccc(-c2cnc(N)c(-c3nc4ccc(F)cc4[nH]3)c2)cc1")
"higher than 50%"
>>> measured("O=C(CSc1nnc(-c2ccc3c(c2)OCO3)o1)N(Cc1ccco1)CC(F)(F)F")
"higher than 50%"

Continue with the next compound.
Q: Fill blank: measured percentage of inhibition of LdGSK-3 of the compound N#Cc1cc(-c2ccnc(Nc3cccc(CN4CCOCC4)c3)n2)ccc1NCCN is ____.
A: higher than 50%
